# System: Human immunodeficiency virus 1
# Experiment: Antiviral activity against HIV1 IIIB harboring E138K mutant infected in MT4 cells assessed as reduction in virus induced cytopathic effect incubated for 5 days by MTT method
# Assay type: functional, organism-based
# Study conditions: Human immunodeficiency virus 1, IIIB, MT4, 120 h
Output True for records whose EC50 is lower than 0.02 µM, False for records at or above 0.02 µM.

> print(dat)
                                  mol.smiles              measurement.target  answer.label
 1  Cc1cc(/C=C/C#N)cc(C)c1Oc1ccnc(NC2CCN(Cc3cn(CC(N)=O)nn3)CC2)n1  Human immunodeficiency virus 1         False
 2  Cc1cc(/C=C/C#N)cc(C)c1Oc1nc(NC2CCN(Cc3cn(CC(=O)NC4CCOCC4)nn3)CC2)nc2ccccc12  Human immunodeficiency virus 1         False
 3  CNC(=O)Cn1cc(CN2CCC(Nc3nccc(Oc4c(C)cc(/C=C/C#N)cc4C)n3)CC2)nn1  Human immunodeficiency virus 1          True
 4  Cc1cc(/C=C/C#N)cc(C)c1Oc1ccnc(NC2CCN(Cc3cn(CC(=O)NC4CC4)nn3)CC2)n1  Human immunodeficiency virus 1          True
 5  CCNC(=O)Cn1cc(CN2CCC(Nc3nc4c(c(Oc5c(C)cc(/C=C/C#N)cc5C)n3)COC4)CC2)nn1  Human immunodeficiency virus 1         False
 6  Cc1cc(C#N)cc(C)c1Oc1ccnc(NC2CCN(Cc3cn(Cc4ccccc4C#N)nn3)CC2)n1  Human immunodeficiency virus 1         False
 7  CCNC(=O)Cn1cc(CN2CCC(Nc3nc(Oc4c(C)cc(/C=C/C#N)cc4C)c4ccsc4n3)CC2)nn1  Human immunodeficiency virus 1          True
 8  CCNC(=O)Cn1cc(CN2CCC(Nc3nccc(Oc4c(C)cc(/C=C/C#N)cc4C)n3)CC2)nn1  Human immunodeficiency virus 1          True
 9  Cc1cc(/C=C/C#N)cc(C)c1Oc1nc(NC2CCN(Cc3cn(CC(=O)NC4CCOCC4)nn3)CC2)nc2sccc12  Human immunodeficiency virus 1          True
10  CCNC(=O)Cn1cc(CN2CCC(Nc3nc(Oc4c(C)cc(/C=C/C#N)cc4C)c4ccccc4n3)CC2)nn1  Human immunodeficiency virus 1         False

# check: EC50 < 0.02 µM for CNC(=O)Cn1cc(CN2CCC(Nc3nc4c(c(Oc5c(C)cc(/C=C/C#N)cc5C)n3)COC4)CC2)nn1
True

# check: EC50 < 0.02 µM for Cc1cc(/C=C/C#N)cc(C)c1Oc1nc(NC2CCN(Cc3cn(CC(=O)NC4CC4)nn3)CC2)nc2ccsc12
False

# check: EC50 < 0.02 µM for Cc1cc(/C=C/C#N)cc(C)c1Oc1ccnc(NC2CCN(Cc3cn(Cc4ccc(B(O)O)cc4)nn3)CC2)n1
True

# check: EC50 < 0.02 µM for Cc1cc(/C=C/C#N)cc(C)c1Oc1nc(NC2CCN(Cc3cn(CC(N)=O)nn3)CC2)nc2ccsc12
False

* * *

# Measurement target: Human immunodeficiency virus type 1 reverse transcriptase (Human immunodeficiency virus 1)
# Experiment: Inhibition of HIV-1 reverse transcriptase assessed as reduction in biotin-dUTP incorporation incubated for 2 hrs in presence of template and viral nucleotides by ELISA
Output True for records whose IC50 is lower than 100 nM, False for records at or above 100 nM.

Here are 4 molecules together with their reported answers.
> print(dat)
                                 mol.smiles  answer.label
1  Cc1cc(C#N)cc(C)c1Oc1ccnc(NC2CCN(Cc3cn(CC(=O)NC4CC4)nn3)CC2)n1          True
2  CNC(=O)Cn1cc(CN2CCC(Nc3nc(Oc4c(C)cc(/C=C/C#N)cc4C)c4ccsc4n3)CC2)nn1         False
3  COC(=O)CCCn1cc(CN2CCC(Nc3nccc(Oc4c(C)cc(/C=C/C#N)cc4C)n3)CC2)nn1          True
4  Cc1cc(/C=C/C#N)cc(C)c1Oc1nc(NC2CCN(Cc3cn(CC(N)=O)nn3)CC2)nc2sccc12         False

# check: IC50 < 100 nM for Cc1cc(/C=C/C#N)cc(C)c1Oc1ccnc(NC2CCN(Cc3cn(Cc4ccc(B(O)O)cc4)nn3)CC2)n1
True
